Data credit: patent US6506751B1

# Assayed Target: CCR-5 receptor (Homo sapiens, UniProt P51681)
# Construct: membranes prepared from CCR-5/L 1.2 cells; expressed in transfected cells; host or cells: L1.2 cells (CCR-5/L 1.2), membrane preparation
# Sequence (P51681 whole entry): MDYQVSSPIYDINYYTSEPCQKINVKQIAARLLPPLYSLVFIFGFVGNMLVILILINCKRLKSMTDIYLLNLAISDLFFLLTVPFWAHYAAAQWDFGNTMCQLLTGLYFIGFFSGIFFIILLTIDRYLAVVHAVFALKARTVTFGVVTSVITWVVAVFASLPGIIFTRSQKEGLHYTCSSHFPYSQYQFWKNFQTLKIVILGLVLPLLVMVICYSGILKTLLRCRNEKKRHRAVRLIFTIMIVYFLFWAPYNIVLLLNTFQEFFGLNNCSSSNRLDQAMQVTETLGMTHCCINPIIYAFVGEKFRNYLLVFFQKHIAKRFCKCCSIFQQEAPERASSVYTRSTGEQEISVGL
# Assay Explanation: 125I-gp120/sCD4/CCR-5 binding assay (CCR-5 receptor binding assay)
# Assay Setup: 10 μM compound; 125I-gp120/sCD4 binding to membranes from CCR-5/L 1.2 cells; read-out: % Inhib. @ 10 μM
Property Name: inhibition at 10 µM (%)
Answers are plain numbers, in %.

Previously resolved entries follow.
Compound	Assayed Target	Property Name	Units	Result Value
O=C1C(=Cc2cccc(F)c2)SC(c2cccc(F)c2)N1CCCN1CCN(C2CCCCC2)CC1 (stereo not drawn) [Compound 27]	CCR-5 receptor (Homo sapiens, UniProt P51681)	inhibition at 10 µM	%	57.6
O=C1C(=Cc2ccccc2)SC(c2cccc(F)c2)N1CCCN1CCCCC1 (stereo not drawn) [Compound 36]	CCR-5 receptor (Homo sapiens, UniProt P51681)	inhibition at 10 µM	%	63.3

### Prompt What value of inhibition at 10 µM has been reported for the following compound? O=C1C(=Cc2cccc(F)c2)SC(c2cccc(C(F)(F)F)c2)N1CCCN1CCCCC1 (stereo not drawn) [Compound 25]
### Response 50.7
